measurement_target: androgen receptor in MDA-MB453-MMTV clone 54-19 cells (Homo sapiens)
test_details: AR Antagonist Cell Assay (MMTV-luciferase reporter, DHT-induced)
protocol_conditions: MDA-MB453-MMTV clone 54-19, 100 pM DHT, 17 hr; mean of multiple tests
Experimental: The compounds ability to antagonize the effects of androgen on the androgen receptor were determined in a whole cell assay as described immediately below. Cell line: MDA-MB453-MMTV clone 54-19. […] Cells are maintained in culture medium, splitting cells when they reach 80-90% confluence. […] The fold induction over background by 100 pM DHT in the absence of testing compounds is standardized as 100% and experimental result is expressed as percentage of inhibition by testing compounds. […]
pIC50: −log10 of the molar value.
Assign class by pIC50: not lower than 7 means yes; lower than 7 means no.

Example entries and their recorded answers appear below.
compound="CC(C)CC(Oc1ccc(C#N)c(C(F)(F)F)c1)c1ccccn1 (stereo not shown) [Example 83]" classification=no
compound="COc1ccccc1COc1ccc(C#N)c(C(F)(F)F)c1 [Example 45]" classification=no
compound="CCCC(Oc1ccc(C#N)c(C(F)(F)F)c1)c1cncc(OCOCCOC)c1 (stereo not shown) [Example 92]" classification=no
compound="COc1ccccc1COc1ccc(C#N)c(Cl)c1 [Example 67]" classification=no
compound="CCC(Oc1ccc(C#N)c(C(F)(F)F)c1)c1cccc(O)c1 (single isomer, unassigned; (-)) [Example 13]" classification=yes
compound="N#Cc1ccc(OCc2cccc(O)c2)c(Cl)c1 [Example 41]" classification=no
compound="Cc1ccc(C)c(C(C)Oc2ccc(C#N)c(Cl)c2)c1 (stereo not shown) [Example 61]" classification=no
compound="CC(Oc1ccc(C#N)c(C(F)(F)F)c1)c1cccc(O)c1 (single isomer, unassigned; (+)) [Example 10]" classification=no

Answer whether pIC50 of N#Cc1ccc(CCOc2ccc(C#N)c(C(F)(F)F)c2)cc1 [Example 75] is greater than or equal to 7. yes

Can Cc1cccc(C(C)Oc2ccc(C#N)c(C(F)(F)F)c2)c1 (stereo not shown) [Example 51] be said to have pIC50 at or above 7? no

Is the recorded value of pIC50 equal to or greater than 7 for this compound? N#Cc1ccc(OCC2COc3ccccc3O2)cc1Cl (stereo not shown) [Example 69] no

----------
Kindly state pIC50 for each of the entries shown.
measurement_target: hAR (human androgen receptor, baculovirus/Sf9 generated extracts) (Homo sapiens)
Construct: made in house; host or cells: baculovirus/Sf9 insect cells (crude extract)
Sequence (P10275 1-920): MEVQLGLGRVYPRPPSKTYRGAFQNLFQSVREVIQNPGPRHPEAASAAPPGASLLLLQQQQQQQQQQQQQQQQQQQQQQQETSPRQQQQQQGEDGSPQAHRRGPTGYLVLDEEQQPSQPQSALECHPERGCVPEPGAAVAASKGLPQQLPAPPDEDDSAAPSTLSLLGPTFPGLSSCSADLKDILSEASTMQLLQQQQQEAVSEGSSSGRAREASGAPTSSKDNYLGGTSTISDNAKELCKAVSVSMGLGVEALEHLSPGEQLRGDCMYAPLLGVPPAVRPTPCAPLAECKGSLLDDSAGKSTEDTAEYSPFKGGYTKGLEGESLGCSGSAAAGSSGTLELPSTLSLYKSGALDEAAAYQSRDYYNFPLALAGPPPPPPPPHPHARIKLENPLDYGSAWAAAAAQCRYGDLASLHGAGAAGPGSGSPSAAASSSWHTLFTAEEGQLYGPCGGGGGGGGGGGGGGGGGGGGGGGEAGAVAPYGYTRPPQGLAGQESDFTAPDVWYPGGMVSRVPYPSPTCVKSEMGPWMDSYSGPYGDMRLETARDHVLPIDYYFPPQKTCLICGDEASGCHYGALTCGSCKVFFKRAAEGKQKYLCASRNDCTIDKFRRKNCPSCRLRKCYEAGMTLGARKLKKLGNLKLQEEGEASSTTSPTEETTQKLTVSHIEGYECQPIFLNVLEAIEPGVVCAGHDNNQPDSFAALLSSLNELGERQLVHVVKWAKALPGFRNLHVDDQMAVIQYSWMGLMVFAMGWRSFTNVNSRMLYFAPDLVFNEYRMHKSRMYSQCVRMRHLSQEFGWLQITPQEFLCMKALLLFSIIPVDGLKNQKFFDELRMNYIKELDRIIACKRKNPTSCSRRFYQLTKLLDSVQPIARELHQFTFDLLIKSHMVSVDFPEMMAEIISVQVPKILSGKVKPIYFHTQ
test_details: AR Binding Assay (competitive binding with 3H-DHT tracer)
protocol_conditions: hAR extract, 1 nM 3H-DHT, one hour at 4° C.; mean of multiple tests; read-out: AR Binding IC50
One number for each entry, as −log10 of the molar value.

For the 3 compounds below, give their pIC50 values.
1. N#Cc1ccc(OC(Cc2ccccc2)c2ccccn2)cc1C(F)(F)F (stereo not drawn)
2. Cc1ccccc1C(C)Oc1ccc(C#N)c(C(F)(F)F)c1 (stereo not drawn)
3. Cc1ccccc1COc1ccc(C#N)c(Cl)c1

6.62
6.36
6.89
